Some compounds, each annotated with its measured EC50.
test system: MKN45; test: Inhibition of cell viability (MTS), MKN45; format: cell-based; conditions: Homo sapiens, MKN-45, 96 h, MKN45 cells, 96 hours incubation
Structures can show the parent of a compound that is named as a salt.

{"Compound": "CNC(=O)c1ccc(-c2ccc3nnc(C(F)(F)c4ccc5nc(NC(=O)C6CC6)cn5n4)n3c2)cc1F [Compound 98]", "Target Entity": "MKN45", "EC50": "< 30 nM"}
{"Compound": "O=C(Nc1cn2nc(C(F)(F)c3nnc4ccc(-c5ccncc5)cn34)ccc2n1)C1CC1 [Compound 79]", "Target Entity": "MKN45", "EC50": "< 30 nM"}
{"Compound": "Cc1csc(-c2ccc3nnc(C(C)c4ccc5nc(NC(=O)C6CC6)cn5n4)n3c2)c1 (centres unmarked) [Compound 62]", "Target Entity": "MKN45", "EC50": "< 30 nM"}

In plain terms, C[C@H](c1ccc2nc(NC(=O)C3CC3)cn2n1)c1nnc2ccc(-c3cnn(C)c3)cn12 [Compound 51] has a documented EC50 of > 100 nM

In plain terms, CC(c1ccc2nc(NC(=O)C3CC3)cn2n1)c1nnc2ccc(-c3cccc(F)c3)cn12 (centres unmarked) [Compound 65] has a documented EC50 of < 30 nM

In plain terms, Cn1cc(-c2ccc3nnc(C(F)(F)c4ccc5nc(NC(=O)C6CC6)cn5n4)n3c2)cn1 [45 (HCl Salt)] has a documented EC50 of < 30 nM

In plain terms, CNC(=O)c1ccc(-c2ccc3nnc(C(C)c4ccc5nc(NC(=O)C6CC6)cn5n4)n3c2)cc1 (centres unmarked) [Compound 68] has a documented EC50 of 30 to 59 nM

In plain terms, CCS(=O)(=O)c1cccc(-c2ccc3nnn(Cc4ccc5nc(NC(=O)C6CC6)cn5n4)c3c2)c1 [Compound 18] has a documented EC50 of 100 to 249 nM
